- Experimental Details: Solubility of the compound in PBS at pH 7.4 after 24 hrs
- Type: physicochemical
Recorded Metric: solubility at 24 h (µM)

{"columns": ["Compound", "Result Comparator", "Experimental Value"],
 "data": [
  ["O=C(NO)C(Cc1ccccc1)C(=O)NCc1ccc(F)cc1 (configuration not stated)", ">", 200],
  ["O=C(NO)/C(=C\\c1ccc(F)cc1)C(=O)NCc1ccc(F)cc1", "=", 190]
]}

---

- Experimental Details: AUC (0 to infinity) in CD1 mouse RBC at 50 mg/kg, ip
- Format: ADME, organism-based, Erythrocyte
- Set-up: time infinity, dose 50 mg/kg, route intraperitoneal
- Assay Context: in vivo
Recorded Metric: AUC (µM·h)

{"columns": ["Smiles Representation", "Experimental Value"],
 "data": [
  ["O=C(NO)/C(=C\\c1ccccc1)C(=O)NCc1ccc(F)cc1", 98]
]}

---

- Experimental Details: AUC (0 to last) in CD1 mouse RBC at 50 mg/kg, ip
- Assay type: ADME, organism-based, Erythrocyte
- Parameters: dose 50 mg/kg, route intraperitoneal, time 0 - last
- Assay Context: red blood cells

{"columns": ["Smiles Representation", "Scale Unit", "AUC(0-t)"],
 "data": [
  ["O=C(NO)/C(=C\\c1ccccc1)C(=O)NCc1ccc(F)cc1", "µM·h", 90]
]}

---

- Experimental Details: Partition coefficient, log D of the compound in octanol-phosphate buffer at pH 7.4
- Type: physicochemical
Recorded Metric: logD

{"columns": ["Smiles Representation", "Recorded Metric", "Experimental Value"],
 "data": [
  ["O=C(NO)/C(=C\\c1ccc(F)cc1)C(=O)NCc1ccc(F)cc1", "logD", 1.7]
]}

---

# half-life per entry
- Experimental Details: Half life in human plasma
- Format: ADME, cell-free
Recorded Metric: half-life

{"columns": ["Molecule", "Recorded Metric", "Experimental Value"],
 "data": [
  ["O=C(NO)C(Cc1ccccc1)C(=O)NCc1ccc(F)cc1 (stereo not drawn)", "half-life", "> 24 h"],
  ["O=C(NO)/C(=C\\c1ccccc1)C(=O)NCc1ccc(F)cc1", "half-life", "> 24 h"],
  ["O=C(NO)/C(=C\\c1ccc(F)cc1)C(=O)NCc1ccc(F)cc1", "half-life", "> 24 h"]
]}

---

- Experimental Details: Elimination half life in CD1 mouse RBC at 50 mg/kg, ip
- Assay type: ADME, organism-based, Erythrocyte
- Set-up: dose 50 mg/kg, route intraperitoneal
- Assay Context: red blood cells, read-out: beta t1/2 (converted)
Recorded Metric: half-life (h)

{"columns": ["Smiles Representation", "Recorded Metric", "Experimental Value"],
 "data": [
  ["O=C(NO)/C(=C\\c1ccccc1)C(=O)NCc1ccc(F)cc1", "half-life", 1.5]
]}

---

- Experimental Details: AUC (0 to infinity) in CD1 mouse plasma at 50 mg/kg, ip
- Assay type: ADME, organism-based
- Design: time infinity, dose 50 mg/kg, route intraperitoneal

{"columns": ["Smiles Representation", "Scale Unit", "AUC(0-inf)"],
 "data": [
  ["O=C(NO)/C(=C\\c1ccccc1)C(=O)NCc1ccc(F)cc1", "µM·h", 68]
]}

---

- Experimental Details: Elimination half life in CD1 mouse plasma at 50 mg/kg, ip
- Format: ADME, organism-based
- Set-up: dose 50 mg/kg, route intraperitoneal
- Assay Context: read-out: beta t1/2 (converted)

{"columns": ["Smiles Representation", "half-life (min)"],
 "data": [
  ["O=C(NO)/C(=C\\c1ccccc1)C(=O)NCc1ccc(F)cc1", 60]
]}

---

# half-life per entry
- Experimental Details: Half life in rat plasma
- Type: ADME, cell-free
Recorded Metric: half-life (h)

{"columns": ["Molecule", "Scale Unit", "Experimental Value"],
 "data": [
  ["O=C(NO)C(Cc1ccccc1)C(=O)NCc1ccc(F)cc1 (configuration not stated)", "h", 0.8],
  ["O=C(NO)/C(=C\\c1ccc(F)cc1)C(=O)NCc1ccc(F)cc1", "h", 3]
]}

---

- Subject Of Test: Aminopeptidase N (Sus scrofa)
- Sequence (P15145 whole entry): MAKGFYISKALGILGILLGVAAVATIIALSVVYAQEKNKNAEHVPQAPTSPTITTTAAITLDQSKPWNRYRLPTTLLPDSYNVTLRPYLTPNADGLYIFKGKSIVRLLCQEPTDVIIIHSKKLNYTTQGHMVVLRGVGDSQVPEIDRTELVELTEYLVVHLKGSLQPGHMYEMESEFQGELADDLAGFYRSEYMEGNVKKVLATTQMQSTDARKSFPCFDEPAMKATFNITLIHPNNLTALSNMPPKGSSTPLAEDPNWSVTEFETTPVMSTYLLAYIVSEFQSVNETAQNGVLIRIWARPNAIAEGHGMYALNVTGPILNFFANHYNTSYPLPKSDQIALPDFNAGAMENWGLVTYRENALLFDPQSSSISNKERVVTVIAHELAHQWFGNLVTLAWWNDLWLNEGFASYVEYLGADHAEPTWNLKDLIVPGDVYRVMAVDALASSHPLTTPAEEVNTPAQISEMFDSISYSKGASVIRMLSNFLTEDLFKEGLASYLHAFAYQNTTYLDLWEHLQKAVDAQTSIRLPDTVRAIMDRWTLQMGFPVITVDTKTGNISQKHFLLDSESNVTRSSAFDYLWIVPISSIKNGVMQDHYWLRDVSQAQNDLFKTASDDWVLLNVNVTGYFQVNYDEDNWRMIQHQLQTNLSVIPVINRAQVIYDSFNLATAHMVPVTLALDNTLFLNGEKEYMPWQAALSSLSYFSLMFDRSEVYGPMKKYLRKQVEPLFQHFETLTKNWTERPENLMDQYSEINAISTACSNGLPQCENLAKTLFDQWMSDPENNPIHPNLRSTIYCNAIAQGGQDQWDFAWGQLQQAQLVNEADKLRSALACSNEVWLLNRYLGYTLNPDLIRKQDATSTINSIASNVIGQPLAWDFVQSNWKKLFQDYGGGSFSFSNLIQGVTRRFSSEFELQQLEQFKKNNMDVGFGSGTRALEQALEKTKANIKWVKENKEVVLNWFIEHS
pIC50: −log10 of the molar value.
# pIC50 per entry

{"columns": ["Compound", "Subject Of Test", "pIC50"],
 "data": [
  ["O=C(NO)C(Cc1ccccc1)C(=O)NCc1ccccc1 (stereo not drawn)", "Aminopeptidase N (Sus scrofa)", "< 5.00"],
  ["O=C(NO)C(Cc1ccc(F)cc1)C(=O)NCc1ccccc1 (stereo not drawn)", "Aminopeptidase N (Sus scrofa)", 5.88],
  ["CC(Cc1ccccc1)(C(=O)NO)C(=O)NCc1ccc(F)cc1 (stereo not drawn)", "Aminopeptidase N (Sus scrofa)", "< 5.00"]
]}
